system: ADCK4; settings: concentration: 1 μM, replicates: in singlicate; n = 1;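 also: KINOMEscan kinase panel screen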
Classification field. Basis: %Inh. Definitions: bottom end (below 10%), midrange (10% to below 20%), top end (20% or more)

Reference set (5 entries):
[
  {
    "molecule": "CN1c2ccc(-c3ccc(C(N)=O)cc3)cc2-c2[nH]ncc2S1(=O)=O",
    "assigned label": "bottom end"
  },
  {
    "molecule": "CCn1c(-c2c(N)noc2C)nc2cnccc21",
    "assigned label": "top end"
  },
  {
    "molecule": "O=C(Nc1n[nH]c2cc(-c3ccsc3)ccc12)C1CC1",
    "assigned label": "bottom end"
  },
  {
    "molecule": "CC(=O)c1cccc(NC(=O)NC2CCN(c3ccnc(Nc4ccc(F)cc4)n3)C2)c1 (stereo not shown)",
    "assigned label": "top end"
  },
  {
    "molecule": "Cc1ccccc1Cn1ccn2c(=O)cc(N3CCOCC3)nc12",
    "assigned label": "midrange"
  }
]

// bin(item) where item = Cn1cncc1-c1cc2c(Nc3ccc(OCc4ccccc4)cc3)ncnc2cn1 top end

Determine which band this molecule sits in: Cc1c(Cn2c(C)c(C)n3c(=O)cc(N4CCOCC4)nc23)cccc1C(F)(F)F midrange

For this molecule, which bin applies? CSc1ccc(-c2nc3n(c2-c2ccncc2)CCC3)cc1 bottom end

Which of the defined bands does the recorded %Inh of Cc1c(Cn2c3ccccc3n3c(=O)cc(N4CCOCC4)nc23)cccc1C(F)(F)F sit within? bottom end

Which of the defined bands does the recorded %Inh of COc1ccc(Nc2nccc(-c3ccc(NC(=O)c4cc5cc(F)ccc5[nH]4)cc3)n2)cc1 sit within? top end

Which of the defined bands does the recorded %Inh of CS(=O)(=O)CCNCc1nc(-c2ccc3ncnc(Nc4ccc5c(cnn5Cc5ccccc5)c4)c3c2)cs1.Cl.Cl sit within? top end

Dear colleague, I would appreciate it if you could identify the bin for COC(=O)C(Cc1ccccc1)NC(=O)NC1CCN(c2ccnc(Nc3ccc(F)cc3)n2)C1 (stereo not shown) and reply at your convenience. top end

Class (by measured %Inh) for Cl.Cl.Cl.N#Cc1ccc(CCNc2nccc(-c3cccc(CN4CCNCC4)c3)n2)cc1 top end

----------
test system: SRPK1; conditions: concentration: 1 μM, replicates: in singlicate; n = 1
reported endpoint: %Inh

[
  {
    "compound": "CNc1cc(-c2ccc3c(N)n[nH]c3c2)nc(N)n1",
    "assayed target": "SRPK1",
    "reported endpoint": "%Inh",
    "test result": "46%"
  },
  {
    "compound": "CCn1c(-c2ccccc2)nc2cnccc21",
    "assayed target": "SRPK1",
    "reported endpoint": "%Inh",
    "test result": "11%"
  },
  {
    "compound": "COc1ccc(CSc2nnc(-c3ccc4nccn4c3)o2)cc1C(F)(F)F",
    "assayed target": "SRPK1",
    "reported endpoint": "%Inh",
    "test result": "20%"
  },
  {
    "compound": "CS(=O)(=O)CCNCc1nc(-c2ccc3ncnc(Nc4ccc(OCc5ccccc5)c(Cl)c4)c3c2)cs1.Cl",
    "assayed target": "SRPK1",
    "reported endpoint": "%Inh",
    "test result": "10%"
  },
  {
    "compound": "O=C(Nc1n[nH]c2nc(-c3cccs3)c(Br)cc12)C1CC1",
    "assayed target": "SRPK1",
    "reported endpoint": "%Inh",
    "test result": "22%"
  }
]

Quick one: %Inh of COc1ccc(Nc2nccc(NCCNC(=O)Nc3cc(C)ccc3C)n2)cc1 ? 34%

Fill in: %Inh of CS(=O)(=O)Cc1ccc(Nc2nccc(-c3c(-c4cccc(NC(=O)C5CCCCC5)c4)nn4ncccc34)n2)cc1 is ___ 29%

Sample O=C1NC(=O)C(c2ccc(Cl)cc2)=C1Nc1cccc(Cl)c1 — what was its %Inh? 0%

What value of %Inh has been reported for the following compound? COc1cccc(NC(=O)Nc2ccc(C)c(-c3ccc(C(=O)Nc4ccncc4)cc3)c2)c1 31%

// query %Inh value for entry COc1ccc(-c2coc3ccc(-c4nnc(C)o4)cc23)cc1 9%

State the recorded %Inh for this entry: Cn1cncc1-c1cc2c(Nc3ccc(OCc4ccccc4)cc3)ncnc2cn1 18%

// returns reported %Inh for input O=c1cc(N2CCOCC2)nc2n(Cc3cccc(Cl)c3Cl)c3ccccc3n12 19%

Values from paper PMC5540273
